Data provenance: ChEMBL document CHEMBL3393056

- method-summary: AUC in rat at 5 mg/kg, po
- Assay type: ADME, organism-based
- Parameters: dose 5 mg/kg, route oral
- conditions-used: plasma
property-label: AUC (µM·h)

smiles-structure	property-label	units-label	measurement
CC(C)n1cc(S(=O)(=O)c2ccc(CNC(=O)c3cc4ccncc4o3)nc2)cn1	AUC	µM·h	3

[A] O=C(NCc1ccc([S@@](=O)c2cc(F)cc(F)c2)cn1)c1cc2ccncc2o1
[B] O=C(NCc1ccc(S(=O)(=O)c2cc(F)cc(F)c2)cn1)c1cc2ccncc2o1
[C] CC(C)CN1CCC([S@](=O)c2ccc(CNC(=O)c3cc4ccncc4o3)cc2)CC1
query: Ordering criterion: AUC; begin with the maximum. Would you mind listing the labels in the order requested?
result: B, A, C
(B: 3.3 µM·h, A: 1.2 µM·h, C: 0.27 µM·h)
